- tested.system: Acrosin (Homo sapiens, UniProt P10323)
- Sequence (P10323 20-42 limits assumed): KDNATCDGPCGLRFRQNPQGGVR
- Sequence (P10323 43-343 limits assumed): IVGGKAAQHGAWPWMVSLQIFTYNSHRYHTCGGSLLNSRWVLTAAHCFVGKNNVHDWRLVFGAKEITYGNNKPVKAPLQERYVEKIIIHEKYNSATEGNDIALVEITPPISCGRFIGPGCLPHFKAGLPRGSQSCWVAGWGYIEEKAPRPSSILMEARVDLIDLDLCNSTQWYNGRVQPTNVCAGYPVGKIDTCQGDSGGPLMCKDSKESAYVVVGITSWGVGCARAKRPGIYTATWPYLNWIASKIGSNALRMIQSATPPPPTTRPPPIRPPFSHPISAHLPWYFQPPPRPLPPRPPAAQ
With a cut-off of 5 mM, any IC50 strictly below it is called Yes; any IC50 meeting it or above is called No.

[in] Bench note: check whether `CNC(=O)c1nn(C(=O)c2ccc(Cl)cc2Cl)c2ccccc12` shows IC50 below 5 mM
[out] Yes

[in] Try the compound `COc1ccccc1CNS(=O)(=O)c1ccc2nc(NC(=O)NCCO)[nH]c2c1`
[out] No

[in] And Cc1ccc(S(=O)(=O)NC(CCCCN)C(=O)CCl)cc1 (stereo unspecified) ?
[out] No

[in] Now consider `CCCCN(CCCC)CC(=O)Nc1nc2ccc(Br)cc2s1` and answer again.
[out] Yes

[in] Similarly, `CCOC(=O)c1nn(C(=O)c2ccc(Cl)cc2Cl)c2ccccc12` ?
[out] Yes

[in] Next compound up: `COc1ccc(-c2cc(C(=O)NCCCO)[nH]n2)cc1`
[out] Yes

[in] Also need `O=C(NCCO)Nc1nc2ccc(S(=O)(=O)NCc3ccccc3F)cc2[nH]1` , thanks.
[out] Yes

[in] // next record `COc1ccc(-c2cc(C(=O)N(C)CCO)n[nH]2)cc1`
[out] No

[in] Request: `O=C(NCCO)Nc1nc2ccc(S(=O)(=O)NCc3ccccc3Cl)cc2[nH]1`
[out] Yes

[in] // repeat for `CC(C)CCN(CCC(C)C)CC(=O)Nc1nc2ccc(Br)cc2s1` and report
[out] Yes

[in] Thanks! And `Cc1cccc(CNS(=O)(=O)c2ccc3nc(NC(=O)NCCO)[nH]c3c2)c1` ?
[out] No
